ASSAYED_SYSTEM: T1, mouse DKK1 (R&D Systems) (mouse, UniProt O54908 32-272)
T1 construct: Bought protein
T1 sequence (looked up): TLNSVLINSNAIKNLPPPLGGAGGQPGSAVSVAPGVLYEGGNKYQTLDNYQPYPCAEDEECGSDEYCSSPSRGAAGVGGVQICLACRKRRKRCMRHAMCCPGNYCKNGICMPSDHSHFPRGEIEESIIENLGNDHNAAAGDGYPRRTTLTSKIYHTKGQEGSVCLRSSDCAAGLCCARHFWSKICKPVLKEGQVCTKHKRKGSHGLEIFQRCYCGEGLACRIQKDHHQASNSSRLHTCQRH
PROTOCOL_TEXT: SPR (Biacore), DKK1 immobilised on CM5 chip, Fab as analyte
QUANTITY: Kd

1) MOR04456 (Fab, V domains shown, Fab with C-terminal FLAG and 6xHis tags) VH: QVQLVESGGGLVQPGGSLRLSCAASGFTFNNYGMTWVRQAPGKGLEWVSGISGSGSYTYYADSVKGRFTISRDNSKNTLYLQMNSLRAEDTAVYYCARTIYMDYWGQGTLVTVSS VL: DIVLTQSPATLSLSPGERATLSCRASQNLFSPYLAWYQQKPGQAPRLLIYGASNRATGVPARFSGSGSGTDFTLTISSLEPEDFATYYCQQYGDEPITFGQGTKVEIKR
11.6 nM

Reference for the values: patent US20120023600A1
